assay: Pharmacokinetic studies in Balb/c mice
runConditions: male, Balb/c, mouse, in vivo, po, 50 mg/kg
parameter: AUC(0-inf) at 24 h
Write the numeric value and append its unit.

In the examples that follow, each entry is paired with its recorded AUC(0-inf) at 24 h.
Data request: GET /values?readout=AUC(0-inf) at 24 h&item= CCOC(=O)NC(=O)c1ccsc1NC(=O)c1nc2ccccc2s1 [TCA1, reference compound]
Data returned: 33700 ng·h/mL

Data request: GET /values?readout=AUC(0-inf) at 24 h&item= COC(=O)NC(=O)c1ccsc1NC(=O)c1ccc(C(=O)N2CCCCC2)cc1 [Compound 25a]
Data returned: 657 ng·h/mL

Consider the record given below.
Data request: GET /values?readout=AUC(0-inf) at 24 h&item= CCOC(=O)NC(=O)c1ccsc1NC(=O)c1ccc(C(=O)N2CCCCC2)c(F)c1 [Compound 24f]
Data returned: 57.9 ng·h/mL

---

assay: Pharmacokinetic studies in Balb/c mice
runConditions: male, Balb/c, mouse, in vivo, po, 50 mg/kg
parameter: AUC(0-t) at 24 h (ng·h/mL)
// return numeric value only (unit: ng·h/mL, not printed)

In the examples that follow, each entry is paired with its recorded AUC(0-t) at 24 h.
Data request: GET /values?readout=AUC(0-t) at 24 h&item= COC(=O)NC(=O)c1ccsc1NC(=O)c1ccc(C(=O)N2CCCCC2)cc1 [Compound 25a]
Data returned: 651

Data request: GET /values?readout=AUC(0-t) at 24 h&item= CCOC(=O)NC(=O)c1ccsc1NC(=O)c1nc2ccccc2s1 [TCA1, reference compound]
Data returned: 33700

Consider the record given below.
Data request: GET /values?readout=AUC(0-t) at 24 h&item= CCOC(=O)NC(=O)c1ccsc1NC(=O)c1ccc(C(=O)N2CCCCC2)c(F)c1 [Compound 24f]
Data returned: 41.9

---

assay: in vitro
runConditions: human, hepatocytes
parameter: remaining at 0.5 h, 1 µM (%)
// return numeric value only (unit: %, not printed)

Data request: GET /values?readout=remaining at 0.5 h, 1 µM&item= CCOC(=O)NC(=O)c1ccsc1NC(=O)c1ccc(C(=O)N2CCCCC2)s1 [Compound 24j]
Data returned: 75.1

---

parameter: melting point

In the examples that follow, each entry is paired with its recorded melting point.
Data request: GET /values?readout=melting point&item= O=C(Nc1sccc1C(=O)Nc1nccc(C(F)(F)F)n1)c1ccc(C(=O)N2CCCCC2)cc1 [Compound 25l]
Data returned: 182 to 183 °C

Data request: GET /values?readout=melting point&item= Cc1ccc2sc(NC(=O)c3ccsc3NC(=O)c3ccc(C(=O)N4CCCCC4)cc3)nc2c1 [Compound 25q]
Data returned: > 250 °C

Data request: GET /values?readout=melting point&item= CCCNC(=O)c1ccc(C(=O)Nc2sccc2C(=O)NC(=O)OCC)cc1 [Compound 23a]
Data returned: 219 to 220 °C

Data request: GET /values?readout=melting point&item= CCOC(=O)NC(=O)c1ccsc1NC(=O)c1ccc(C(=O)N2CCC(OC)CC2)cc1 [Compound 23m]
Data returned: 160 to 161 °C

Data request: GET /values?readout=melting point&item= CCOC(=O)NC(=O)c1ccsc1NC(=O)c1ccc(C(=O)NC2CCCCC2)cc1 [Compound 23e]
Data returned: > 250 °C

Continuing:
Data request: GET /values?readout=melting point&item= CCOC(=O)NC(=O)c1ccsc1NC(=O)c1ccc(C(=O)N(C)CC)cc1 [Compound 23b]
Data returned: 161 to 162 °C

Data request: GET /values?readout=melting point&item= CCOC(=O)N1CCN(C(=O)c2ccsc2NC(=O)c2ccc(C(=O)N3CCCCC3)cc2)CC1 [Compound 25h]
Data returned: 134 to 135 °C

Data request: GET /values?readout=melting point&item= CCOC(=O)NC(=O)c1ccsc1NC(=O)c1ccc(C(=O)Nc2ccccc2)cc1 [Compound 23g]
Data returned: > 250 °C

---

assay: Pharmacokinetic studies in Balb/c mice
runConditions: male, Balb/c, mouse, in vivo, iv, 5 mg/kg
parameter: clearance at 24 h (mL/min/kg)
// return numeric value only (unit: mL/min/kg, not printed)

In the examples that follow, each entry is paired with its recorded clearance at 24 h.
Data request: GET /values?readout=clearance at 24 h&item= CCOC(=O)NC(=O)c1ccsc1NC(=O)c1ccc(C(=O)N2CCCCC2)c(F)c1 [Compound 24f]
Data returned: 479

Data request: GET /values?readout=clearance at 24 h&item= COC(=O)NC(=O)c1ccsc1NC(=O)c1ccc(C(=O)N2CCCCC2)cc1 [Compound 25a]
Data returned: 101

Consider the record given below.
Data request: GET /values?readout=clearance at 24 h&item= CCOC(=O)NC(=O)c1ccsc1NC(=O)c1nc2ccccc2s1 [TCA1, reference compound]
Data returned: 10.6

---

Parameter half-life at 24 h: see the listing below.
assay: Pharmacokinetic studies in Balb/c mice
runConditions: male, Balb/c, mouse, in vivo, po, 50 mg/kg
// return numeric value only (unit: h, not printed)

Data request: GET /values?readout=half-life at 24 h&item= COC(=O)NC(=O)c1ccsc1NC(=O)c1ccc(C(=O)N2CCCCC2)cc1 [Compound 25a]
Data returned: 0.85

Data request: GET /values?readout=half-life at 24 h&item= CCOC(=O)NC(=O)c1ccsc1NC(=O)c1nc2ccccc2s1 [TCA1, reference compound]
Data returned: 2.19

Data request: GET /values?readout=half-life at 24 h&item= CCOC(=O)NC(=O)c1ccsc1NC(=O)c1ccc(C(=O)N2CCCCC2)c(F)c1 [Compound 24f]
Data returned: 1.7

---

Parameter IC50 at 48 h: see the listing below.
assay: Cytotoxicity assay in HepG2 cells (MTT)
runConditions: human

Data request: GET /values?readout=IC50 at 48 h&item= COC(=O)NC(=O)c1ccsc1NC(=O)c1ccc(C(=O)N2CCCCC2)cc1 [Compound 25a]
Data returned: > 64 µg/mL

Data request: GET /values?readout=IC50 at 48 h&item= COC(=O)NC(=O)c1ccsc1NC(=O)c1ccc(C(=O)N2CCCCC2)c(F)c1 [Compound 25b]
Data returned: > 64 µg/mL

Continuing:
Data request: GET /values?readout=IC50 at 48 h&item= CCOC(=O)NC(=O)c1ccsc1NC(=O)c1ccc(C(=O)N2CCCCC2)cc1 [Compound 23j]
Data returned: > 64 µg/mL

Data request: GET /values?readout=IC50 at 48 h&item= CCOC(=O)NC(=O)c1ccsc1NC(=O)c1nc2ccccc2s1 [TCA1, reference compound]
Data returned: 46.1 µg/mL

Data request: GET /values?readout=IC50 at 48 h&item= CCOC(=O)NC(=O)c1ccsc1NC(=O)c1ccc(C(=O)N2CCCCC2)c(F)c1 [Compound 24f]
Data returned: > 64 µg/mL

---

Tested on: M. tuberculosis H37Rv
assay: MIC against replicating M. tuberculosis H37Rv, microplate Alamar blue assay (MABA)
Assay type: cell-based
runConditions: Mycobacterium tuberculosis, H37RV, against M. tuberculosis H37Rv; Tables 1-3; read-out: MIC
Please note: MIC exactly at 0.3 µg/mL is Condition not met. Only values below 0.3 µg/mL get Condition met.

These recorded examples may help you get a feel for the data.
Data request: I wonder whether CCOC(=O)NC(=O)c1ccsc1NC(=O)c1nc2ccccc2s1 [TCA1, reference compound] has MIC below 0.3 µg/mL. Can you tell?
Data returned: Condition not met

Data request: I wonder whether CCOC(=O)N1CCN(C(=O)c2ccsc2NC(=O)c2ccc(C(=O)N3CCCCC3)cc2)CC1 [Compound 25h] has MIC below 0.3 µg/mL. Can you tell?
Data returned: Condition not met

Data request: I wonder whether CCOC(=O)NC(=O)c1ccsc1NC(=O)c1ccc(C(=O)N2CCCC2)cc1 [Compound 23i] has MIC below 0.3 µg/mL. Can you tell?
Data returned: Condition met

Data request: I wonder whether CCOC(=O)NC(=O)c1ccsc1NC(=O)c1ccc(C(=O)N2CCCCC2)cc1[N+](=O)[O-] [Compound 24e] has MIC below 0.3 µg/mL. Can you tell?
Data returned: Condition not met

Data request: I wonder whether CCOC(=O)NC(=O)c1ccsc1NC(=O)c1ccc(C(=O)NC23CC4CC(CC(C4)C2)C3)cc1 [Compound 23d] has MIC below 0.3 µg/mL. Can you tell?
Data returned: Condition met

Continuing:
Data request: I wonder whether COC(=O)C1CCN(C(=O)c2ccsc2NC(=O)c2ccc(C(=O)N3CCCCC3)cc2)CC1 [Compound 25f] has MIC below 0.3 µg/mL. Can you tell?
Data returned: Condition not met

Data request: I wonder whether CCOC(=O)NC(=O)c1ccsc1NC(=O)c1ccc(C(=O)NC2CCC(C)(C)CC2)cc1 [Compound 23f] has MIC below 0.3 µg/mL. Can you tell?
Data returned: Condition not met

Data request: I wonder whether COC(=O)C1CN(C(=O)c2ccsc2NC(=O)c2ccc(C(=O)N3CCCCC3)cc2)C1 [Compound 25e] has MIC below 0.3 µg/mL. Can you tell?
Data returned: Condition not met

Data request: I wonder whether CCOC(=O)NC(=O)c1ccsc1NC(=O)c1ccc(C(=O)N(CC)CC)cc1 [Compound 23c] has MIC below 0.3 µg/mL. Can you tell?
Data returned: Condition met
